Target: recombinant human AKR1C3 (Aldo-keto reductase family 1 member C3) (Homo sapiens, UniProt P42330)
Construct: GST (cleaved yes); made in house; host or cells: E. coli
Sequence (P42330 1-323): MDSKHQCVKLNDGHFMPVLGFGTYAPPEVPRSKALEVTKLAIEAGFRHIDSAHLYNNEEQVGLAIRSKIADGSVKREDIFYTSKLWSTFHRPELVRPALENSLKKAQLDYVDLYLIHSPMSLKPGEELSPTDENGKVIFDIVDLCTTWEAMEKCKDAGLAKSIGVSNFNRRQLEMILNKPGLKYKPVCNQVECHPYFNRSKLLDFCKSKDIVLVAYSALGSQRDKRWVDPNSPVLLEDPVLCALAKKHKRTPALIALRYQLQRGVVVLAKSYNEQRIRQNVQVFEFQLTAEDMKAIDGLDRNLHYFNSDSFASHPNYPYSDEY
Assay: In Vitro Assay 1: AKR1C3-inhibitory activity (Coumberone to Coumberol fluorescence assay)
Format: biochemical
Settings: recombinant enzyme, Coumberone 0.3 μM, NADPH 10 μM, 15 min pre-incubation, 4-parameter fit; average or median values
MEASURED ENDPOINT: IC50 (nM)

>  <COMPOUND>
O=C(c1cnn[nH]1)N1C[C@@H]2[C@H](C1)[C@H]1CC[C@@H]2N1S(=O)(=O)c1cccc2nonc12 [Example 46]

>  <MEASURED>
59

$$$$
>  <COMPOUND>
COc1cc(F)ccc1S(=O)(=O)N1[C@@H]2CC[C@H]1[C@@H]1CN(C(=O)c3cnn[nH]3)C[C@@H]12 [Example 65]

>  <MEASURED>
45

$$$$

(A) COC(=O)c1cccc(S(=O)(=O)N2[C@@H]3CC[C@H]2[C@@H]2CN(C(=O)c4cnn[nH]4)C[C@@H]23)c1 [Example 56]
(B) Cc1cc(Cl)cc(S(=O)(=O)N2[C@@H]3CC[C@H]2[C@@H]2CN(C(=O)c4cnn[nH]4)C[C@@H]23)c1 [Example 68]
(C) N#Cc1c(Cl)cccc1S(=O)(=O)N1[C@@H]2CC[C@H]1[C@@H]1CN(C(=O)c3cnn[nH]3)C[C@@H]12 [Example 61]
(D) N#Cc1cccc(S(=O)(=O)N2[C@@H]3CC[C@H]2[C@H]2CN(C(=O)c4cnn[nH]4)C[C@H]23)c1 [Example 26]
(E) O=C(c1c[nH]nn1)N1[C@@H]2CC[C@H]1[C@H]1CN(S(=O)(=O)c3ccccc3Cl)C[C@H]12 [Example 9]
In: Rank entries according to their IC50, from the largest number down. Write the labels, ordered according to the request.
Out: A, D, C, B, E

---

Molecular target: recombinant human AKR1C3 (Aldo-keto reductase family 1 member C3) (Homo sapiens, UniProt P42330)
Construct: GST (cleaved yes)
Experiment: In Vitro Assay 1: AKR1C3-inhibitory activity (Coumberone to Coumberol fluorescence assay)
Conditions: recombinant enzyme, Coumberone 0.3 μM, NADPH 10 μM, 15 min pre-incubation, 4-parameter fit; average or median values
MEASURED ENDPOINT: IC50 (nM)

(I) Cc1ccc(Br)cc1S(=O)(=O)N1[C@@H]2CC[C@H]1[C@@H]1CN(C(=O)c3cnn[nH]3)C[C@@H]12
(II) O=C(c1cnn[nH]1)N1[C@@H]2CC[C@H]1[C@H]1CN(S(=O)(=O)c3ccccc3C(F)(F)F)C[C@H]12
In: Out of I and II , name the one with the higher IC50. Reply briefly: the label of your chosen item.
Out: II
(II: 9 nM, I: 4 nM)

---

Target: recombinant human AKR1C3 (Aldo-keto reductase family 1 member C3) (Homo sapiens)
Construct: GST (cleaved yes)
Assay: In Vitro Assay 1: AKR1C3-inhibitory activity (Coumberone to Coumberol fluorescence assay)
Conditions: recombinant enzyme, Coumberone 0.3 μM, NADPH 10 μM, 15 min pre-incubation, 4-parameter fit; average or median values
MEASURED ENDPOINT: IC50 (µM)

Consider the worked cases shown below.
>  <SMI>
O=C(c1c[nH]nn1)N1C[C@@H]2[C@H](C1)[C@@H]1CC[C@H]2N1S(=O)(=O)c1ccc(F)cc1F

>  <IC50 (µM)>
0.102

$$$$
>  <SMI>
COc1ccc(S(=O)(=O)N2[C@@H]3CC[C@H]2[C@@H]2CN(C(=O)c4cnn[nH]4)C[C@@H]23)cc1OC

>  <IC50 (µM)>
0.731

$$$$

(1) O=C(c1cnn[nH]1)N1C[C@@H]2[C@H](C1)[C@H]1CC[C@@H]2N1S(=O)(=O)c1ccccc1[N+](=O)[O-]
(2) NC(=O)c1cccc(S(=O)(=O)N2[C@@H]3CC[C@H]2[C@@H]2CN(C(=O)c4cnn[nH]4)C[C@@H]23)c1
In: 1 or 2 : whose IC50 is greater? Pick one; state its label.
Out: 2
(2: 0.501 µM, 1: 0.004 µM)

---

Target: recombinant human AKR1C3 (Aldo-keto reductase family 1 member C3) (Homo sapiens, UniProt P42330)
Construct: GST (cleaved yes)
Assay: In Vitro Assay 1: AKR1C3-inhibitory activity (Coumberone to Coumberol fluorescence assay)
Conditions: recombinant enzyme, Coumberone 0.3 μM, NADPH 10 μM, 15 min pre-incubation, 4-parameter fit; average or median values
MEASURED ENDPOINT: IC50 (nM)

Below, 3 molecules whose answers are already recorded.
>  <MOLECULE>
O=C(c1c[nH]nn1)N1C[C@@H]2[C@H](C1)[C@@H]1CC[C@H]2N1S(=O)(=O)c1cccc(Cl)c1F [Example 6]

>  <MEASURED>
31

$$$$
>  <MOLECULE>
O=C(c1c[nH]nn1)N1C[C@@H]2[C@H](C1)[C@@H]1CC[C@H]2N1S(=O)(=O)c1cccc(C(F)(F)F)c1 [Example 2]

>  <MEASURED>
61

$$$$
>  <MOLECULE>
O=C(c1c[nH]nn1)N1C[C@@H]2[C@H](C1)[C@@H]1CC[C@H]2N1S(=O)(=O)c1c(F)cccc1F [Example 12]

>  <MEASURED>
43

$$$$

(I) O=C(c1cnn[nH]1)N1[C@@H]2CC[C@H]1[C@H]1CN(S(=O)(=O)c3cc(Cl)cc(Cl)c3)C[C@H]12 [Example 28]
(II) O=C(c1cnn[nH]1)N1C[C@@H]2[C@H](C1)[C@H]1CC[C@@H]2N1S(=O)(=O)c1ccc2nsnc2c1 [Example 48]
In: Hello, I am sorting some records. Could you say if I or II has the smaller IC50 value? Reply with the label of the item you choose.
Out: I

(a) COc1ccc(C#N)cc1S(=O)(=O)N1[C@@H]2CC[C@H]1[C@@H]1CN(C(=O)c3cnn[nH]3)C[C@@H]12 [Example 66]
(b) Cc1ccccc1S(=O)(=O)N1[C@@H]2CC[C@H]1[C@H]1CN(C(=O)c3c[nH]nn3)C[C@H]12 [Example 16]
In: a or b : whose IC50 is greater? Please indicate the selected item by its label.
Out: a

(I) O=C(c1cnn[nH]1)N1[C@@H]2CC[C@H]1[C@H]1CN(S(=O)(=O)c3cccc(F)c3)C[C@H]12 [Example 27]
(II) O=C(c1c[nH]nn1)N1C[C@@H]2[C@H](C1)[C@@H]1CC[C@H]2N1S(=O)(=O)c1cccc(S(F)(F)(F)(F)F)c1 [Example 11]
(III) O=C(c1cnn[nH]1)N1C[C@@H]2[C@H](C1)[C@H]1CC[C@@H]2N1S(=O)(=O)c1cc(Cl)ccc1F [Example 51]
(IV) Nc1cccc(S(=O)(=O)N2[C@@H]3CC[C@H]2[C@@H]2CN(C(=O)c4cnn[nH]4)C[C@@H]23)c1 [Example 69]
In: Please produce an ascending ranking of these molecules based on IC50. List the labels according to the requested ordering.
Out: I, III, II, IV
(I: 2 nM, III: 3 nM, II: 69 nM, IV: 735 nM)

(A) N#Cc1ccccc1S(=O)(=O)N1[C@@H]2CC[C@H]1[C@@H]1CN(C(=O)c3cnn[nH]3)C[C@@H]12 [Example 44]
(B) Cc1ccc(Cl)cc1S(=O)(=O)N1[C@@H]2CC[C@H]1[C@@H]1CN(C(=O)c3cnn[nH]3)C[C@@H]12 [Example 53]
In: Which has the smaller recorded IC50, A or B ? Mark your selection by writing its label.
Out: B

---

Biological target: recombinant human AKR1C3 (Aldo-keto reductase family 1 member C3) (Homo sapiens)
Construct: GST (cleaved yes)
Experiment: In Vitro Assay 1: AKR1C3-inhibitory activity (Coumberone to Coumberol fluorescence assay)
Details: recombinant enzyme, Coumberone 0.3 μM, NADPH 10 μM, 15 min pre-incubation, 4-parameter fit; average or median values
pIC50: −log10 of the molar value.
MEASURED ENDPOINT: pIC50

Guide cases for pIC50, answers given:
>  <COMPOUND>
O=C(c1cnn[nH]1)N1C[C@@H]2[C@H](C1)[C@@H]1CC[C@H]2N1S(=O)(=O)c1ccc(F)c(F)c1 [Example 25]

>  <SYSTEM>
recombinant human AKR1C3 (Aldo-keto reductase family 1 member C3) (Homo sapiens)

>  <pIC50>
6.88

$$$$
>  <COMPOUND>
O=C(c1c[nH]nn1)N1C[C@@H]2[C@H](C1)[C@@H]1CC[C@H]2N1S(=O)(=O)c1cccc(Cl)c1 [Example 3]

>  <SYSTEM>
recombinant human AKR1C3 (Aldo-keto reductase family 1 member C3) (Homo sapiens)

>  <pIC50>
7.70

$$$$
>  <COMPOUND>
O=C(c1c[nH]nn1)N1C[C@@H]2[C@H](C1)[C@@H]1CC[C@H]2N1S(=O)(=O)c1ccccc1F [Example 14]

>  <SYSTEM>
recombinant human AKR1C3 (Aldo-keto reductase family 1 member C3) (Homo sapiens)

>  <pIC50>
7.62

$$$$

(1) O=C(c1cnn[nH]1)N1C[C@@H]2[C@H](C1)[C@H]1CC[C@@H]2N1S(=O)(=O)c1ccccc1 [Example 20]
(2) COc1ccc(Cl)cc1S(=O)(=O)N1[C@@H]2CC[C@H]1[C@@H]1CN(C(=O)c3cnn[nH]3)C[C@@H]12 [Example 47]
In: Lab log: flag the item ( 1 or 2 ) with the smaller pIC50 figure. Return value: the label identifying the chosen record.
Out: 2
(2: 7.07, 1: 7.35)
